RUN DESCRIPTION: Pharmacokinetic profile evaluation in mice
Format: in vivo, CD-1 mice
CONDITION SUMMARY: CD-1; mouse, oral administration at 10 mg/kg, plasma
ENDPOINT NAME: Cmax (ng/mL)

>>> recorded_value("Cn1cc2cc(Oc3ccc(C(F)(F)F)cc3)cc([C@@H]3C[C@H]3C(=O)N3CC[C@H](O)[C@@H](O)C3)c2n1 (single isomer, unassigned) [Example 75a]")
1650
>>> recorded_value("Cn1ncc2c(C3C[C@H]3C(=O)O)cc(Oc3ccc(C(F)(F)F)cc3)cc21 (mixture of isomers)")
41200

(A) CNC(=O)[C@H]1C[C@@H]1c1cc(Oc2ccc(C(F)(F)F)cc2)cc2cn(C)nc12 (single isomer, unassigned) [Example 34b]
(B) Cn1cc2cc(-c3ccc(C(F)(F)F)cc3)cc(C3C[C@H]3C(=O)O)c2n1 (mixture of isomers)
Form: Entry with minimum Cmax (choose one): A / B Record your answer as the label of the chosen record.
A
(A: 3180 ng/mL, B: 9750 ng/mL)
